Cited source: the RNAGym collection of RNA variant scans (doi:10.1038/s41586-018-0170-7)

B1: tRNA (parent)
chain: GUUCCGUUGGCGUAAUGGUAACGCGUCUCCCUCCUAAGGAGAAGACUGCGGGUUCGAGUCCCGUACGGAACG

variants of: B1; experiment: yeast fitness, log relative to wild type (ln ratio); higher = fitter; tRNA-Arg(CCU), competitive growth, 37 C, 1 M NaCl
quantity.kind: yeast fitness (ln)
Just the number, please, no unit attached.

Query :: Param item = GCUCCUUUGGCGUAAUGGUAACGCGUCUCCCUCCUAAGGAGAAGACUGCGGGUUCGAGUCCCGUACGGAUUG [U2C G6U A70U C71U] ; retrieve measured yeast fitness (ln).
Result :: -0.102

Query :: Repeat with AUUCCGUUGGCGUAAUGGUAACGCGUUUCCCUCCUAAGGAGAAGAUUGCGGGUUCGAGUCCCGUAUGGGGUG [G1A C27U C46U C66U A69G A70G C71U]
Result :: -0.255

Query :: Repeat with GCUCCGUUGGCGUAAUGGUAACGCGUCUCCCUCCUAAGGAGAAGACUGCGGGUUCGAGUCCCGUAUGGAACG [U2C C66U]
Result :: -0.207

Query :: Repeat with ACUCCUUUGGCGUAAUGGUAACGCGUCUCCCUCCUAAGGAGACGAUUGCGGGUUCGAGUCCCGUAUGGAUCG [G1A U2C G6U A43C C46U C66U A70U]
Result :: -0.167

Query :: Repeat with ACUCCUUUGGCGUAAUGGUAACGCGUUUCCCUCCUAAGGAGAAGACUGCGGGUUCGAGUCCCGUAUGGGUCG [G1A U2C G6U C27U C66U A69G A70U]
Result :: -0.245

Query :: Repeat with GCUCCGUUGGCGUAAUGGUAACGCGUUUCCCUCCUAAGGAGACGACUGCGGGUUCGAGUCCCGUAUGGAUUG [U2C C27U A43C C66U A70U C71U]
Result :: -0.343

Query :: Repeat with GCUCCGUUGGCGUAAUGGUAACGCGUCUCCCUCCUAAGGAGACGAUUGCGGGUUCGAGUCCCGUAAGGAUUG [U2C A43C C46U C66A A70U C71U]
Result :: -0.169

Query :: Repeat with GGUCCAUUGGCGUAAUGGUAACGCGUCUCCCUCCUAAGGAGACGACUGCGGGUUCGAGUCCCGUACGGGGUG [U2G G6A A43C A69G A70G C71U]
Result :: -0.233

Query :: Repeat with AUUCCGUUGGCGUAAUGGUAACGCGUUUCCCUCCUAAGGAGACGAUUGCGGGUUCGAGUCCCGUAUGGAUCG [G1A C27U A43C C46U C66U A70U]
Result :: -0.173

Query :: Repeat with GUUCCGUUGGCGUAAUGGUAACGCGUUUCCCUCCUAAGGAGACGAUUGCGGGUUCGAGUCCCGUACGGGGUG [C27U A43C C46U A69G A70G C71U]
Result :: -0.0917

Query :: Repeat with AGUCCAUUGGCGUAAUGGUAACGCGUCUCCCUCCUAAGGAGAAGAUUGCGGGUUCGAGUCCCGUAUGGGGUG [G1A U2G G6A C46U C66U A69G A70G C71U]
Result :: -0.413

Query :: Repeat with AGUCCUUUGGCGUAAUGGUAACGCGUUUCCCUCCUAAGGAGAAGAUUGCGGGUUCGAGUCCCGUACGGGUUG [G1A U2G G6U C27U C46U A69G A70U C71U]
Result :: -0.43

Query :: Repeat with GUUCCUUUGGCGUAAUGGUAACGCGUCUCCCUCCUAAGGAGAAGACUGCGGGUUCGAGUCCCGUAUGGGACG [G6U C66U A69G]
Result :: -0.527

Query :: Repeat with GUUCCGUUGGCGUAAUGGUAACGCGUUUCCCUCCUAAGGAGAAGACUGCGGGUUCGAGUCCCGUACGGGACG [C27U A69G]
Result :: -0.0417

Query :: Repeat with GUUCCUUUGGCGUAAUGGUAACGCGUCUCCCUCCUAAGGAGAAGACUGCGGGUUCGAGUCCCGUAAGGAAUG [G6U C66A C71U]
Result :: -0.0261

Query :: Repeat with GGUCCUUUGGCGUAAUGGUAACGCGUCUCCCUCCUAAGGAGAAGAUUGCGGGUUCGAGUCCCGUAAGGGUUG [U2G G6U C46U C66A A69G A70U C71U]
Result :: -0.646

Query :: Repeat with AUUCCUUUGGCGUAAUGGUAACGCGUUUCCCUCCUAAGGAGAAGACUGCGGGUUCGAGUCCCGUACGGAUUG [G1A G6U C27U A70U C71U]
Result :: -0.335

Query :: Repeat with AUUCCAUUGGCGUAAUGGUAACGCGUCUCCCUCCUAAGGAGACGAUUGCGGGUUCGAGUCCCGUAUGGGUUG [G1A G6A A43C C46U C66U A69G A70U C71U]
Result :: -0.4

Query :: Repeat with AUUCCGUUGGCGUAAUGGUAACGCGUUUCCCUCCUAAGGAGACGACUGCGGGUUCGAGUCCCGUAUGGGUCG [G1A C27U A43C C66U A69G A70U]
Result :: -0.325

Query :: Repeat with AUUCCGUUGGCGUAAUGGUAACGCGUCUCCCUCCUAAGGAGAAGAUUGCGGGUUCGAGUCCCGUAAGGAGCG [G1A C46U C66A A70G]
Result :: -0.0981

Query :: Repeat with AGUCCGUUGGCGUAAUGGUAACGCGUUUCCCUCCUAAGGAGACGACUGCGGGUUCGAGUCCCGUACGGAAUG [G1A U2G C27U A43C C71U]
Result :: -0.16

Query :: Repeat with GGUCCUUUGGCGUAAUGGUAACGCGUUUCCCUCCUAAGGAGAAGAUUGCGGGUUCGAGUCCCGUACGGGUUG [U2G G6U C27U C46U A69G A70U C71U]
Result :: -0.387

Query :: Repeat with GUUCCGUUGGCGUAAUGGUAACGCGUUUCCCUCCUAAGGAGACGACUGCGGGUUCGAGUCCCGUAUGGAGCG [C27U A43C C66U A70G]
Result :: -0.227

Query :: Repeat with AGUCCGUUGGCGUAAUGGUAACGCGUUUCCCUCCUAAGGAGAAGACUGCGGGUUCGAGUCCCGUAUGGAACG [G1A U2G C27U C66U]
Result :: -0.174

Query :: Repeat with GUUCCGUUGGCGUAAUGGUAACGCGUUUCCCUCCUAAGGAGAAGAUUGCGGGUUCGAGUCCCGUACGGAUUG [C27U C46U A70U C71U]
Result :: -0.205

Query :: Repeat with GCUCCUUUGGCGUAAUGGUAACGCGUCUCCCUCCUAAGGAGACGACUGCGGGUUCGAGUCCCGUACGGGGUG [U2C G6U A43C A69G A70G C71U]
Result :: -0.13

Query :: Repeat with AGUCCAUUGGCGUAAUGGUAACGCGUUUCCCUCCUAAGGAGAAGACUGCGGGUUCGAGUCCCGUAUGGAUCG [G1A U2G G6A C27U C66U A70U]
Result :: -0.234
